Molecular target: T1, RSV N-RNA complex (full-length N protein in ring-shaped complexes with bacterial RNA) (human respiratory syncytial virus, UniProt P03418 1-391)
T1 construct: human RSV nucleoprotein N, full length; concentrations are of N protomer; also called N-RNA rings; source: in lysate for the co-purification; purified (glutathione-Sepharose, thrombin, Superdex 200) as N-RNA complex; copies: 10-11
T1 sequence (looked up): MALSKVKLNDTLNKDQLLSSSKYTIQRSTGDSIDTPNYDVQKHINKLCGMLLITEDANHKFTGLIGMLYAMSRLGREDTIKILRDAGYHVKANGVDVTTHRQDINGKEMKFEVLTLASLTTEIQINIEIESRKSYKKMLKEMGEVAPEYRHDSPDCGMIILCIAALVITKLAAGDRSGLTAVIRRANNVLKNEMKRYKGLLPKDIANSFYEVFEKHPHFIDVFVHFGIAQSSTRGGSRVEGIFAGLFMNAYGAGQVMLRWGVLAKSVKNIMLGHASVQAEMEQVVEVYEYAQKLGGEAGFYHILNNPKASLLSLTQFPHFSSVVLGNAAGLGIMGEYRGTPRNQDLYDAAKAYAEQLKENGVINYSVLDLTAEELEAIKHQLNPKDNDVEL
Experiment: fluorescence polarisation; 200 nM dicyano BODIPY FL-labelled BCNn peptide, N-RNA varied; 20 mM Tris pH 8.0 without salt, 0.01% Brij-35; 20 °C; single site model
Conditions: both partners purified
Ends that are not written are not given here. * marks the point of attachment. dicyano BODIPY FL = CC1=CC(C)=[N+]2C1=Cc1ccc(CCC(=O)*)n1[B-]2(C#N)C#N
Field: Kd. Provide a value for each of the binders that follow.
Express your answer in nM, writing the number without its unit.

Data request, read-out Kd, for {dicyano BODIPY FL}-NDLELEDF (C-terminal 8 residues of RSV phosphoprotein P with a phosphomimetic glutamate at 237; also called B8E; source: synthetic peptide (Fmoc/tBu solid phase, dicyano BODIPY FL coupled on resin, RP-HPLC purified)) [BCN8E (dicyano BODIPY FL-labelled RSV P 8-mer, Ser237Glu)]
1430

I would be grateful if you could share the reported Kd for {dicyano BODIPY FL}-DSDNDLELEDF (C-terminal 11 residues of RSV phosphoprotein P with a phosphomimetic glutamate at 237; source: synthetic peptide (Fmoc/tBu solid phase, dicyano BODIPY FL coupled on resin, RP-HPLC purified)) [BCN_(11SE) (dicyano BODIPY FL-labelled RSV P 11-mer, Ser237Glu)] .
820

What does the record list as Kd for {dicyano BODIPY FL}-EDNDLELEDF (C-terminal 10 residues of RSV phosphoprotein P with phosphomimetic glutamates at 232 and 237; also called B_(10EE); source: synthetic peptide (Fmoc/tBu solid phase, dicyano BODIPY FL coupled on resin, RP-HPLC purified)) [BCN_(10EE) (dicyano BODIPY FL-labelled RSV P 10-mer, Ser232Glu/Ser237Glu)] ?
160

# query: Kd of entry {dicyano BODIPY FL}-DEDNDLELEDF (C-terminal 11 residues of RSV phosphoprotein P with phosphomimetic glutamates at 232 and 237; source: synthetic peptide (Fmoc/tBu solid phase, dicyano BODIPY FL coupled on resin, RP-HPLC purified)) [BCN_(11EE) (dicyano BODIPY FL-labelled RSV P 11-mer, Ser232Glu/Ser237Glu)]
280

Which value of Kd has been reported for {dicyano BODIPY FL}-DNDLELEDF (C-terminal 9 residues of RSV phosphoprotein P with a phosphomimetic glutamate at 237; also called B9E; source: synthetic peptide (Fmoc/tBu solid phase, dicyano BODIPY FL coupled on resin, RP-HPLC purified)) [BCN9E (dicyano BODIPY FL-labelled RSV P 9-mer, Ser237Glu)] in the records?
960
